# targetSystem: MBP (Escherichia coli, UniProt P0AEX9)
# procedureText: Fluorescence anisotropy, MBP negative control
# Assay type: binding
# details: 5-FAM peptide, replicate Y2 (Fig. 4E source data), read-out: KD MBP
Where no end group is shown, it is not given here.
measureName: Kd

Ask | Which measured Kd value corresponds to MNVEIGNPTYKMYE [LRP1 14-mer] ?
Reply | > 32 µM

---

# targetSystem: MBP-SNX17H457A (Homo sapiens, UniProt Q15036, H457A)
# Construct: M protein marker, R Retriever complex, FL full-length; His (N, cleaved yes); made in house; host or cells: Escherichia coli BL21(DE3)
# Sequence (Q15036 whole entry H457A): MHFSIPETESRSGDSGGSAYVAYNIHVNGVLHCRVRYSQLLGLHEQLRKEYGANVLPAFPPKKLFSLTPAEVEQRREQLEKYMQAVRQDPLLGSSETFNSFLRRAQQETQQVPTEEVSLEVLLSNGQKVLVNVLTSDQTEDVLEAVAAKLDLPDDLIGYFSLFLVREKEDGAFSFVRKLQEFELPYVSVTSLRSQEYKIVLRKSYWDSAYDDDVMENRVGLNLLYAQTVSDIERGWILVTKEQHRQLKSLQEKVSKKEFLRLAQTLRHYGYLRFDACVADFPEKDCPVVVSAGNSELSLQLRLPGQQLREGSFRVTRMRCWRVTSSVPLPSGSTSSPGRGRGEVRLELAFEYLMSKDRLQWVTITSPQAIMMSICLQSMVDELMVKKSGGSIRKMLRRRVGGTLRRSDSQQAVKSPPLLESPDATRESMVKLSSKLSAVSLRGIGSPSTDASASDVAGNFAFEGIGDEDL
# procedureText: Fluorescence anisotropy binding of 5-FAM peptides to MBP-SNX17 H457A
Where no end group is shown, it is not given here.
measureName: Kd (nM)
Kindly answer with a numeric value in nM, unit omitted.

Ask | Which measured Kd value corresponds to KLITYDNPAYEGID [L2 14-mer] ?
Reply | 1100

---

# targetSystem: MBP-SNX17 WT (Homo sapiens)
# Construct: M protein marker, R Retriever complex, FL full-length; His (N, cleaved yes); made in house; host or cells: Escherichia coli BL21(DE3)
# Sequence (Q15036 whole entry): as the sequence (Q15036 whole entry H457A) above, with A457H counted along it
# procedureText: Fluorescence anisotropy binding of 5-FAM peptides to MBP-SNX17 wild-type
Where no end group is shown, it is not given here.
measureName: Kd (nM)
Kindly answer with a numeric value in nM, unit omitted.

Ask | Form field - read-out: Kd; system: MBP-SNX17 WT (Homo sapiens); submitted item: MNVEIGNPTYKMYE [LRP1 14-mer]
Reply | 3000

Ask | Form field - read-out: Kd; system: MBP-SNX17 WT (Homo sapiens); submitted item: KLITYDNPAYEGID [L2 14-mer]
Reply | 1100

---

# targetSystem: MBP-SNX17V380D (Homo sapiens, UniProt Q15036, V380D)
# Construct: M protein marker, R Retriever complex, FL full-length; His (N, cleaved yes); made in house; host or cells: Escherichia coli BL21(DE3)
# Sequence (Q15036 whole entry V380D): as the sequence (Q15036 whole entry H457A) above, with V380D, A457H counted along it
# procedureText: Fluorescence anisotropy binding of 5-FAM peptides to MBP-SNX17 V380D
# details: 5-FAM peptide, Bmax fixed at 240, replicate Y3 (Fig. 4E source data), read-out: KD MBP-SNX17V380D
Where no end group is shown, it is not given here.
measureName: Kd

Ask | Which measured Kd value corresponds to MNVEIGNPTYKMYE [LRP1 14-mer] ?
Reply | > 32 µM

---

# targetSystem: MBP-SNX17W321A (Homo sapiens, UniProt Q15036, W321A)
# Construct: M protein marker, R Retriever complex, FL full-length; His (N, cleaved yes); made in house; host or cells: Escherichia coli BL21(DE3)
# Sequence (Q15036 whole entry W321A): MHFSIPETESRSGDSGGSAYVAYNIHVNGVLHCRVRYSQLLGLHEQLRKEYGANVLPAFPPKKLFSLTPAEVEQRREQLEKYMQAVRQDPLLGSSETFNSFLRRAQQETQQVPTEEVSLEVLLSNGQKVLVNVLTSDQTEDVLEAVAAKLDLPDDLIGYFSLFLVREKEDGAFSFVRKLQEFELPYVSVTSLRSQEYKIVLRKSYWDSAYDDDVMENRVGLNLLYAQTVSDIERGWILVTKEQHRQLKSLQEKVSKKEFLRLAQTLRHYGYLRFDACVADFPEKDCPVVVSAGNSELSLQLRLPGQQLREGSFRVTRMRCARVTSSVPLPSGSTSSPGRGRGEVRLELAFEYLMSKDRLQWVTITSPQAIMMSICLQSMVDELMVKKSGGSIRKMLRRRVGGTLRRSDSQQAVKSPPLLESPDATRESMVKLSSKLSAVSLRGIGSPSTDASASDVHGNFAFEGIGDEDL
# procedureText: Fluorescence anisotropy binding of 5-FAM peptides to MBP-SNX17 W321A
# details: read-out: KD MBP-SNX17W321A; fluorescence anisotropy, 5-FAM peptide, Bmax fixed at 240; replicate Y2 (Fig. 4E source data)
pKd: −log10 of the molar value. Where no end group is shown, it is not given here.
measureName: pKd

Ask | Form field - read-out: pKd; system: MBP-SNX17W321A (Homo sapiens, UniProt Q15036, W321A); submitted item: MNVEIGNPTYKMYE [LRP1 14-mer]
Reply | < 4.49

---

# targetSystem: MBP-SNX17W321A (Homo sapiens, UniProt Q15036, W321A)
# Construct: M protein marker, R Retriever complex, FL full-length; His (N, cleaved yes); made in house; host or cells: Escherichia coli BL21(DE3)
# procedureText: Fluorescence anisotropy binding of 5-FAM peptides to MBP-SNX17 W321A
Where no end group is shown, it is not given here.
measureName: Kd

Ask | Which measured Kd value corresponds to MNVEIGNPTYKMYE [LRP1 14-mer] ?
Reply | > 32 µM
